experimental system: Fab of trastuzumab (human)
assay details: SPR; Fab of trastuzumab amine-coupled to a CM5 chip (1,000 RU), VHH as analyte in a 1/2 dilution series; Biacore X100, HBS-EP (10 mM HEPES pH 7.4, 150 mM NaCl, 3 mM EDTA, 0.005% P20), 20°C, 10 µL/min, association 360 s, dissociation 800 s; 1:1 binding model
measurement kind: kon (M⁻¹ s⁻¹)

Use the examples below as a reference point.
binder	measurement kind	measured
VHH clone Ig-S1139 (cluster Ig-7) (VHH) VHH: QVQLVESGGGLVQAGGSLRLSCAASGFTFDDYVIGWFRQAPGKEREGVSCISSSDGSTYYADSVKGRFTISSDNAKNTVYLQMNSLKPEDTAVYYCAEGPTVLDGCIVDSGSYYFSWGQGTQVTVSS	kon	23700
VHH clone Ig-S675 (cluster Ig-7) (VHH) VHH: QVQLVESGGGLVQAGGSLRLSCAATGFTFDDYVIGWFRQASGKEREGVSCIRSSDGDTYYADSVKGRFTVSSDNAKNTVYLQMNSLKPEDTAVYYCAEGPTVLDGCIVDSESYYFSWGQGTQVTVSS	kon	303000
VHH clone Ig-S506 (cluster Ig-7) (VHH) VHH: QVQLVESGGGLVQAGGSLRLSCAASGFTFDDYVIGWFRQAPGKEREGVSCISSSDGSTNYADSVKGRFTISSDNAKNTVYLQMNSLKPEDTAVYYCAEGPTVLDGCIYDSGSYYFSWGQGTQVTVSS	kon	29700

P = VHH clone Ig-S6584 (cluster Ig-7) (VHH) VHH: QVQLVESGGGLVQAGGSLRLSCAASGFTFDDYIVGWFRQAPGKEREGVSCIRSSDGSTNYADSVKGRFTVSSDNAKNTVYLQMNSLKPEDTAVYYCAEGPTVLDGCIYDSESYYFSWGQGTQVTVSS
Q = VHH clone Ig-S8492 (cluster Ig-7) (VHH) VHH: QVQLVESGGGLVQAGGSLRLSCAASGFTFDDYVIGWFRQAPGKEREGVSCISSSDGRTDYADSVKGRFTISSDNAKNTVYLQMNSLKPEDTAVYYCAAGPTVLDGCIYYSGSYYFSWGQGTQVTVSS
Exercise: Out of P and Q , name the one with the higher kon. Select an item and report its label.
Solution: P
